Data origin, for the record: ChEMBL document CHEMBL1201862

- Tested on: SK-MEL-28
- experimental-protocol: NCI tumour cell line growth inhibition, 48 h
Calls of active or inactive are those of the source. No stated cut-off is given here; in the data, active = GI50 up to about 1.1 µM and inactive = higher.
List of GI50 values.

Recorded results for 5 compounds are shown here.
{"compound": "COc1ccc(C[n+]2cccc(O)c2)cc1", "GI50": "> 100 µM (inactive)"}
{"compound": "CC1=CC[C@H](C)C(C)(C)C1/C=C/C(C)=C/CC[C@@]1(CO)[C@H](CCCO)/C(=C(/C)C=O)CC[C@]1(C)O (stereo not given in full)", "GI50": "11.4 µM (inactive)"}
{"compound": "COc1ccc(CCc2cc(OC)c(O)c(OC)c2)cc1", "GI50": "19.6 µM (inactive)"}
{"compound": "COc1cccc2c1C(=O)c1c(O)c3c(c(O)c1C2=O)C[C@@](O)(C(C)=O)C[C@@H]3OC1CC(O)C(O)C(C)O1 (stereo not given in full)", "GI50": "6.08 µM (inactive)"}
{"compound": "CC(C)Oc1cccc(N2C(CCc3c[nH]c4ccc(Br)cc34)=NS(=O)(=O)c3cnccc32)c1", "GI50": "> 100 µM (inactive)"}

Attention now shifts to the item below.
// query GI50 value for entry Cn1nc(-c2ccccc2)c(C(=O)/C=C/c2ccc(F)cc2)c(N2CCCC2)c1=O 16 µM (inactive)
